Target: T1, Rb^P A490S (human, UniProt P06400 380-788, A490S)
T1 construct: also called variant 15
T1 sequence (looked up): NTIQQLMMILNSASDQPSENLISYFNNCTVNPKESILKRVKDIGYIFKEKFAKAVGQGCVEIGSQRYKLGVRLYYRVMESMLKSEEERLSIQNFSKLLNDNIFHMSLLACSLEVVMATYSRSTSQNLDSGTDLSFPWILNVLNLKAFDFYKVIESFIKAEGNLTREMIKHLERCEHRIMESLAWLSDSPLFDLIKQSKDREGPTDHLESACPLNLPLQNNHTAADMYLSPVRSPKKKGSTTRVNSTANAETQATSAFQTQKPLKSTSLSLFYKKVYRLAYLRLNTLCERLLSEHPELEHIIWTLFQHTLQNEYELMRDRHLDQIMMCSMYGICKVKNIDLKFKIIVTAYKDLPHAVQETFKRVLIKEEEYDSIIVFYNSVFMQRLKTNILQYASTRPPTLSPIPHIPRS
Assay: fluorescence polarisation; 25 °C; unlabeled Rb^P titrated against 1.5 nM TMR-E2F1^TD or 7.5 nM TMR-E7^LxCxE; 25 mM Tris pH 8.0, 200 mM NaCl, 1 mM DTT, 0.1% Tween-20; 2 min incubation; quadratic fit; apparent Kd for the variants, Kd for WT
Settings: both partners purified
No end group written: not given here. TMR = tetramethyl rhodamine dye
property_measured: pKd
Note on units: pKd is unitless, being -log10 of a concentration expressed in mol/L.

binder	pKd
{TMR}-GEGIRDLFDCDFGDLTPLD (also called E2F^TD; source: synthetic peptide, bought: GenScript) [TMR-E2F1^TD, peptide of the E2F1 transactivation domain]	7.77

What value of pKd has been reported for the following binder? DLYCYEQLN (also: TMR label, position not given here, source: synthetic peptide, bought: GenScript) [TMR-E7^LxCxE, LxCxE peptide of the E7 oncoprotein from HPV]
8.15
